target.desc: T1, human Claudin18.2 (human, UniProt P56856-2 1-261)
T1 construct: whole, on cells; Four-transmembrane protein, always presented on cells (transfected lines or NUGC-4 with endogenous expression); also called CLDN18.2
experimental.protocol: flow cytometry on Ba/F3-Claudin18.2 cells, purified mouse antibody
Overview of reported EC50 across a group of binders:
quantity.kind: EC50 (µM)

1. mouse antibody 1E9.2 (antibody, V domains shown, Purified from hybridoma) VH: EVMLVESGGGLVKPGGSLKLSCAASGFSFSNSAMSWVRQTPEKRLEGVATISSGDSYTYYPDSVKGRFTISRDNAKNSLYLQMSSLRSEDTAVYYCARQGYGNALDYWGQGTSVTVSS VL: DIVMTQSPSSLTVTAGEKVTMSCKSSQSLLNSGNQKNYLTWYQQKPGQPPKLLIYWSSTRESGVPDRFTGSGSGTDFTLTISSVQAEDLAVYYCQNDYYYPLTFGAGTKLELK: 0.00851
2. mouse antibody 16A9.11 (antibody, V domains shown, Purified from hybridoma) VH: EVMLVESGGGLVKPGGSLKLSCAASGFSFSNSAMSWVRQTPEKRLEGVATISSGDSYTYYPDSVKGRFTISRDTAKNSLYLQMSSLRSEDTAVYYCTRQGYGNAMDYWGQGTSVTVSS VL: DIVMTQSPSSLTVTAGEKVTMSCKSSQSLLNSGNQKNYLTWYQQKPGQPPKLLIYWSSTRESGVPDRFTGSGSGTDFTLTISSVQAEDLAVYYCQNDYYYPLTFGAGTKLELK: 0.0102
3. mouse antibody 19H11.6 (antibody, V domains shown, Purified from hybridoma) VH: EVMLVESGGGLVKPGGSLKLSCAASGFSFSNSAMSWVRQTPEKRLEGVATISSGDSFTYYPDTVKGRFTISRDNAKNSLYLQMSRLRSEDTAVYYCARQGYGNALDYWGQGTSVTVSS VL: DIVMTQSPSSLTVTAGEKVTMTCKSSQSLLNSGNQKNYLTWYQQKPGQPPKLLIYWSSTRESGVPDRFTGSGSGTDFTLTISSVQAEDLAVYYCQNDYYYPLTFGAGTKLELK: 0.0109
4. mouse antibody 2C6.9 (antibody, V domains shown, Purified from hybridoma; also called 2C6.9.2) VH: QVQLKESGPGLVAPSQSLSITCTVSGFSLTRYGVSWVRQPPGKGLEWLGVIWGDGNTNFHSFLKSRLSISKDSSKSQVFLKLNSLQTDDTATYYCARVNFGNALDYWGQGTSVTVSS VL: DIVMTQSPSSLTVTAGEEVTMSCKSSQSLLNSGNQKNYLTWYQQKPGQPPKLLIYWASTRDSGVPDRFTGSGSGTDFTLTISSVQSEDLAVYYCQNDFIFPLTFGAGTKLELK: 0.0106
5. mouse antibody 9C8.1 (antibody, V domains shown, Purified from hybridoma) VH: QVQLQQSGAELVRPGSSVKISCKASGYAFSNYWMNWVKQRPGQGLEWIGQIYPGDGDTNYNGKFKGKATLTTDKSSSTAYMQLSSLTSEDSAVYFCARLYYGNSFAYWGQGTLVTVSS VL: DIVMTQSPSSLTVTAGEKVTVSCKSSQSLLNSGNQKNYLTWYQQKPGQPPKLLIYWASTRESGVPDRFTGSGSGTDFTLTISSVQAADLAIYYCQNDYFYPFTFGGGTKLEIK: 0.0094
